# assay name: yeast display, Sf9 membrane polyspecificity reagent, FACS + sequencing; frameworks hold sequencing errors
reported property: polyreactivity (PSR sort gate)

primary sequence	measurement
QVQLVESGGGLVQAGGSLRLSCAASGRIFYLNAMGWYRVAPGKERELVAAITRSAASTHYADSVKGRFTISRDNAKNTVYLQMNSLKPEDTAVYYCAARFWYDYRHYDYWGQGTQVTVSS	low polyreactivity
QVQLVESGGGLVQAGGSLRLSCAASGFTFLKYAMGWYIQAPGKERELVARITSGGRTYYADSVKGRFTISRDNAKNTVYLQMNSLKPEDTAVYYCNAVKSYASLYAGFYYWGQGTQVTVSS	high polyreactivity
QVQLVESGGGLVQAGGSLRLSCAASGSTFGRYVMGWYRQAPGKERELVAAISKNAGSTYYADSVKGRFTISRDNAKNTVYLQMNRLKPEDTAVYYCAADWRTKGYDSLGQGTQVTVSS	high polyreactivity
QVQLVESGGGLVQAGGSLRLSCAASGRTFRLYAMGWYRQAPGKERELVAAIRSGGSTNYADSVKGRFTISRDNAKNTVYLQMNSLKPEDTAVYYCAVDGYFFQGPYYYWGQGTQVTVSS	low polyreactivity
QVQLVESGGGLVQAGGSLRLSCASSGSIFTGNVMGWYRQAPGKERELVAAISSRGGNTYYADSVKGRFTISRDNAKNTVYLQMNSLKPEDTAVYYCNKVKYTWYDWGQGTQVTVSS	high polyreactivity
QVQLVESGGGLFQAGGSLRLSSAASGSTFDPYAMGWSRQAPGKERELVATITYSGGRTYYADSVKGRFTISGDNAKNTVYLQMNSLKPEDTAVYYCAVDVVYWGGDYCGQGTQVTVSS	low polyreactivity
QVQLVESGGGIFQAGGSLRLSCSASGNTLVIYAMGWYRQAPVKESELVAAISRAGGTTYYADSVKGRFTISRDKAKNTVYLQMNSLKPEDTEVFYCNAGDHMRKRYGISATWGYGYGYWGQGSQVTVSS	high polyreactivity
QVQLVESGGGLVQAGGSLRLSCAASGGTFSYYAMGWYRQAPGKGELVAAISSGGSTNYADSVKGRFTISRDNAKNTVYLQMNSLKPEDTAVYFCAARYRFWGPYNYWGQGTQVTVSS	high polyreactivity
QVQLVESGGGLVQAGGSHRLSCAASGRIFGTYTMGWYRHAPGKERELVASIRFGGSTYYADSVKGRYTISRDNAKNTVYLQMNSLKPEDTAVYYCNRVYGYNRRYGYWGQGTQVTVSS	high polyreactivity
QVQLVESGGGLFQAGGSLRLSCAASGRTFWRYAMGWSRQAPGKERELVAAITSGGGSTFYADSVKGRFTISRDYAKNTVDLQMNILKAEVTAVYYCNREYRWGNSLYSRYDYWGQGTQVTVSS	high polyreactivity
QVQLVESGGGLVQAGGSLRLSCAASGYISYYYAMGWYREAPGKEREFVAGISWSGGSTYYADPVKGRFTISRDNAKNTVYLQMNSLKPEDTAVYDCAARLSRWWPPTGVHYSDRYYGGQGTQVTVSS	high polyreactivity

----------
# assay name: yeast display, Sf9 membrane polyspecificity reagent, FACS + sequencing; frameworks hold sequencing errors
reported property: polyreactivity (PSR sort gate)

primary sequence	reported property	measurement
QVQLVESGGGLVQAGGSLRLSCAASGRTFVIYDMGWYRQAHGKERELVAGITRSGGSTYADSVKGRFTISRDNAKNTVYLQMNSLKPEDTAVYYGARRKLYHKSPYDYWGQGTQVTVSS	polyreactivity (PSR sort gate)	low polyreactivity
QVQLVESGGGLVQAGGSLRLSCAASGSTFARYAMGWYRQAPGKERELVAAISRSGSNTYYADSVKGRFTISRDNAKNTVYLQMNSLKPEDTAVYYCAAVQPGQRTVAYDYWGQGTLVTVSS	polyreactivity (PSR sort gate)	high polyreactivity
QVQLVESGGGLVQAGGSLRLSCAASGITFYWYAMGWYRQAPGKERELVAAITRSVGSTYYADSVKGRFSISRDNAKNPVYLQMNSLKPEDTAVYYCAADFYYYGFDYWGQGTQVTVSS	polyreactivity (PSR sort gate)	low polyreactivity
QVQLVESWGGLVQAGGSLRLSCAASGRILNYYDMGWYRQAPGKERELVAGISRGGSTTYADSVKGRFTISRDNAKNTVYLQMISLKPEDTAVYYCNADRSHYWLPYGVRFDYWGQGTQVNVSS	polyreactivity (PSR sort gate)	low polyreactivity
QVQLVESGGGLVQAGGSLRLSCAASGSTFYVYAMGWYRQAPGKERELVATISSGGITNYADSVKGRFTISRDNAMNTVYLQMNSLKPEDTAVYYCNAKKAYYGRGMNYWGQGTQVTVSS	polyreactivity (PSR sort gate)	low polyreactivity
QVQLVESGGGLVQAGGSLRLSCAASGSIFLINAMGWYRQAPGKETELVAAISRSGGRTYYADSVKGRFTISRDNAKNTVYLQMNSLKPEDTAVYYCAVPSIYYAGRAYDYWGQGTQVTVSS	polyreactivity (PSR sort gate)	high polyreactivity
QVQLVESGGGLVQAGGSLRLSCAASGFTFDENAMGWYRQAPGINYSGASTYYADSVKGRFTISRDNAKNTVYLQMNSLKADDTAVYYCAAEVVAQMNYWGQGTQVTVSS	polyreactivity (PSR sort gate)	low polyreactivity
QVQLVESGGGLVQAGGSLRLSCAASGSTFPYYAMGWYRQEPGKERELVASIRKRGGGTYYADSVKGRFTISRDNAKNTVYLQMNSLKPEDTAVYYCAVRVYQFRYTGYDYWGQGTQVTVSS	polyreactivity (PSR sort gate)	high polyreactivity
QVQLVESGGRLVQAGGSLRLSCAASGRIFYNYSMGWYRQAPGKERELVATIRYRGGSTYYADSVKGRFTISRDNAKNTVYLQMNSLKPEDTAVYYCAARFNYNRDYPYYSWGQGTQVNVSS	polyreactivity (PSR sort gate)	high polyreactivity
QVQLVESGGGLVQAGGSLRLSCAASGIIFDGNAMGWYRQAPGKERELVAAISSRGSRTYYADSVKGRFTISRDNAKNTVYLQMNSLKPEDTAVYSCNAGYVFRSYGYDPWGQGTQVTVSS	polyreactivity (PSR sort gate)	high polyreactivity
QVQLVESGGGLVQAGGSLRLSCAASGFTFLYNAMGWYRQAPGKERELVAAIDSGGMTNYADSVKGRFTISRDNAKNTVYLQMKSLKPEDTAVYYCAARFTQYITSDDGHYYYWGQGTQVTVSS	polyreactivity (PSR sort gate)	low polyreactivity
QVQLVESGGGLVQAGGSLRLSCAASGRTFFGYAMGWYRQAPGKERELVAAISRGGGRTYYADSVKGRFTISRDNAKNTVYLQMNSLKPEDTAVYYCNAVTFSFYLYDWGQGTQVTVSS	polyreactivity (PSR sort gate)	high polyreactivity
QVQLVESGGGLVQAGGSLRLSCAASGRIFGLNAMGWYRQAPGKERELVAAITGSVGSTYYADSVKGRFTISRDNAKNTVYLQMNSLKPEDTAVYYCYAEYDSRRSSYYRHFNYWGQGTQVTVSS	polyreactivity (PSR sort gate)	low polyreactivity
QVQLVESGGGLVQAGGSLRLSCAASGLTIQNNAMGWYRQAPGKERDLVAVITRIGGSTYYADSVKGRFTISRDYEKNTVYLQMNSLKPEDTAVYYCAAGYRTRRRLHVYWGQGTQVTVSS	polyreactivity (PSR sort gate)	high polyreactivity
QVQLVESGGGLVQAGGSLRLSCAASGFTFGYYAMGWYRQAPGKERELVARISRRGGTTYYADSVKGRFTISRDNAKTTVYLQMNSLKPEDTAVYYCATDGVWNRINRYDYWGQGTQVTVSS	polyreactivity (PSR sort gate)	high polyreactivity
QVQLVESGGGLVQAGGSLSLSCDASGSIFRSNAMGWYRQAPGKERELVAAISRSGGRTYYADSVKGRFTISRDNAKNTVYLQMNSLKPEDTAVYYCAAQVVRSLKYEYWGQGTQVTVSS	polyreactivity (PSR sort gate)	high polyreactivity
QVQLVESGGGLVQAGGSLRLSCAASGRIFYINAMGWYRQAPGKERELVAAITGGDGSTTYADSVKGRFTISRDNAKNTVYLQMNSLKPEDTAVYYCNADTARKYAESQFDHWGQGTQVTVSS	polyreactivity (PSR sort gate)	low polyreactivity
QVQLVESGGGLVQAGGSLRLSCAASGRIFGPYAMGWYRQAPGKERELVAAITQRGGSTSYADSVKGRFTISRDNAKKTVYLQMNSLKPEDTAVYYCNVLSYGSIPRRGYYYVWGDYWGQGTQVTVSS	polyreactivity (PSR sort gate)	high polyreactivity
QVQLVESGGGLVQAGGSLRLSCAASGRNFSRNAMGWYRQAPGKERELVAAISSGGRTKYADSVKGRFTISRDNAKNTVYLQMNSLKPEDTAVYYCAATDPRSWYGRGRYDYWGQGTQVTVSS	polyreactivity (PSR sort gate)	high polyreactivity
QVQLVESGGGLVQAGGSLRLSCAASGSIFSVNAMGWYRQAPGKETELVAGITISGGRTYYADSVKGRFTISRDNAKNTVYLQLNSLKPEDNAVYYCAADWVYPPGLKDSVHFGEYDYWGEGTQVTVSS	polyreactivity (PSR sort gate)	low polyreactivity
QVQLVESGGGLFQAGGSLRLSCAASGSIFAGYAMGWSRQAPGNERELVATITSSSRTNYADSVKGRFTISRDNAKNTVYLQMNSLKPEDTAVYYCAATSFSVRFTRYYYWGQGTQVTVSS	polyreactivity (PSR sort gate)	high polyreactivity
